Origin of measurements: PubChem BioAssay (NCI)

System: CAKI-1 renal
Test: NCI-60 one-dose screen, 48 h (100 = growth as untreated, 0 = no growth, -100 = all killed)
Settings: 10 µM
Procedure: Growth inhibition of the CAKI-1 human tumor cell line is measured as a screen for anti-cancer activity. Cells are grown in 96 well plates and exposed to the test compound for 48 hours. Compounds are tested at a single concentration, which is 10^-5 M for most compounds. The reported endpoint is percent growth (GI% or GIPRCNT), where numbers from 0 - 100% represent growth inhibition, and numbers from -100% - 0 represent cell death. For example, a value of 40 represents 60% growth inhibition. […]
About 83,000 compounds went through this panel and 20% of them were active in at least one assay; those are over-represented in the sample as a whole.
Returns Met if the recorded growth is greater than or equal to 90%, and Not met otherwise.

[[record]]
compound = "N#C/C(=C\\c1cc(O)c(O)c(O)c1)C(N)=O"
label_class = "Met"

[[record]]
compound = "O=c1[nH]c(O)c(/C=C2/C=Nc3ccccc32)[nH]1"
label_class = "Met"

[[record]]
compound = "O=S(=O)(O)C(Nc1ccccc1)c1ccccc1 (stereo not drawn)"
label_class = "Met"

[[record]]
compound = "N#Cc1c(N)sc(=S)c2c1CCCC2"
label_class = "Met"

[[record]]
compound = "COCCOCCCl"
label_class = "Met"

[[record]]
compound = "COC(=O)Nc1nc2ccc(C(=O)c3cccs3)cc2[nH]1"
label_class = "Not met"

[[record]]
compound = "CC1(C(N)=O)CCC(C(=O)O)C1(C)C (stereo not drawn)"
label_class = "Met"

[[record]]
compound = "O=S(=O)(O)c1ccc(O)c2ccccc12"
label_class = "Not met"

[[record]]
compound = "O=[N+]([O-])c1ccc(CO)cc1"
label_class = "Met"

[[record]]
compound = "COCCOC(=O)c1ccc(C(C)C)cc1"
label_class = "Met"

[[record]]
compound = "O=C1c2ccccc2C(=O)N1OCc1ccccc1"
label_class = "Met"

[[record]]
compound = "CCOC(=O)c1ccc(Nc2sc(C(=O)c3cccc([N+](=O)[O-])c3)c(N)c2C#N)cc1"
label_class = "Not met"


----------
System: OVCAR-3 ovarian
Experiment: NCI-60 one-dose screen, 48 h
Settings: 10 µM
Compounds without any hit were thinned out: in the full panel of roughly 83,000, 20% have a hit. The source made the active and inactive calls. The calls were made as follows: active = growth percent below 10; inactive = the rest.
Classes used: active, inactive

[[record]]
molecule = "CC(C)C1CCCCC1O (configuration not stated)"
test_system = "OVCAR-3 ovarian"
label_class = "inactive"

[[record]]
molecule = "CC(=O)Nc1c(C)cc(C)cc1C"
test_system = "OVCAR-3 ovarian"
label_class = "inactive"

[[record]]
molecule = "CCCCOC(=O)c1ccc(C(C)C)cc1"
test_system = "OVCAR-3 ovarian"
label_class = "inactive"

[[record]]
molecule = "Cc1cccc(C(=O)N(C(C)C)C(C)C)c1"
test_system = "OVCAR-3 ovarian"
label_class = "inactive"

[[record]]
molecule = "Cc1cc(=O)cc(C)n1-c1ccccc1"
test_system = "OVCAR-3 ovarian"
label_class = "inactive"

[[record]]
molecule = "c1c(-c2cc(C3CC3)[nH]n2)n[nH]c1C1CC1"
test_system = "OVCAR-3 ovarian"
label_class = "inactive"

[[record]]
molecule = "Cc1ccc(C(=O)NC2c3ccccc3Oc3ccccc32)cc1"
test_system = "OVCAR-3 ovarian"
label_class = "inactive"

[[record]]
molecule = "CCCC(C)OCC(=O)O (configuration not stated)"
test_system = "OVCAR-3 ovarian"
label_class = "inactive"

[[record]]
molecule = "Cc1cc(N2CCC(N3CCCC3)CC2)nc(/N=C(\\N)Nc2ccc(Cl)c(Cl)c2)n1"
test_system = "OVCAR-3 ovarian"
label_class = "inactive"

[[record]]
molecule = "CCC(=O)Oc1ccc(OC)cc1"
test_system = "OVCAR-3 ovarian"
label_class = "inactive"

[[record]]
molecule = "COc1cc(/C=C/C(=O)c2ccccc2)cc(OC)c1OC"
test_system = "OVCAR-3 ovarian"
label_class = "inactive"

[[record]]
molecule = "CCCCCCCCCCC(C)Br (configuration not stated)"
test_system = "OVCAR-3 ovarian"
label_class = "inactive"

[[record]]
molecule = "Cn1cnc2nc(Cl)nc(Cl)c21"
test_system = "OVCAR-3 ovarian"
label_class = "active"

[[record]]
molecule = "CN(C)CCN(Cc1ccccc1)c1ccccc1"
test_system = "OVCAR-3 ovarian"
label_class = "inactive"

[[record]]
molecule = "CC(C)OC(C(=O)O)c1ccccc1 (configuration not stated)"
test_system = "OVCAR-3 ovarian"
label_class = "inactive"

[[record]]
molecule = "c1ccc(CN2COc3c(ccc4c3OCN(Cc3ccccc3)C4)C2)cc1"
test_system = "OVCAR-3 ovarian"
label_class = "inactive"

[[record]]
molecule = "Cc1cc(N)ccc1-c1ccc(N)cc1C"
test_system = "OVCAR-3 ovarian"
label_class = "inactive"

[[record]]
molecule = "COc1ccc(C(=O)C(Br)C(Br)C(=O)O)cc1 (configuration not stated)"
test_system = "OVCAR-3 ovarian"
label_class = "inactive"

[[record]]
molecule = "O=[N+]([O-])c1ccccc1S(=O)c1ccccc1[N+](=O)[O-]"
test_system = "OVCAR-3 ovarian"
label_class = "inactive"

[[record]]
molecule = "NCC(=O)CCC(=O)O"
test_system = "OVCAR-3 ovarian"
label_class = "inactive"

[[record]]
molecule = "Nc1ccc(N)c([N+](=O)[O-])c1"
test_system = "OVCAR-3 ovarian"
label_class = "inactive"

[[record]]
molecule = "CCOC(=O)c1ccc(Nc2sc(C(=O)c3cccc([N+](=O)[O-])c3)c(N)c2C#N)cc1"
test_system = "OVCAR-3 ovarian"
label_class = "active"

[[record]]
molecule = "O=c1cc(-c2ccccc2)oc2c1ccc1ccccc12"
test_system = "OVCAR-3 ovarian"
label_class = "inactive"

[[record]]
molecule = "O=C1C=C(Nc2ccc([N+](=O)[O-])cc2)c2ccccc2C1=O"
test_system = "OVCAR-3 ovarian"
label_class = "active"

[[record]]
molecule = "COc1ccc(C2(O)CCCCC2)cc1"
test_system = "OVCAR-3 ovarian"
label_class = "inactive"

[[record]]
molecule = "COc1ccccc1N=Nc1c(O)ccc2cc(S(=O)(=O)O)ccc12"
test_system = "OVCAR-3 ovarian"
label_class = "inactive"

[[record]]
molecule = "CSc1[nH]c(=O)ncc1F"
test_system = "OVCAR-3 ovarian"
label_class = "inactive"

[[record]]
molecule = "COc1ccc2c(c1)CCc1c-2n[nH]c1-c1[nH]nc2c1CCc1cc(OC)ccc1-2"
test_system = "OVCAR-3 ovarian"
label_class = "inactive"

[[record]]
molecule = "CCOC(=O)CCCS(C)(=O)=O"
test_system = "OVCAR-3 ovarian"
label_class = "inactive"

[[record]]
molecule = "COC(=O)c1cc(-c2ccc(Cl)c(Cl)c2)[nH]c(=O)c1C#N"
test_system = "OVCAR-3 ovarian"
label_class = "inactive"

[[record]]
molecule = "CNS(=O)(=O)c1ccc(Cl)c(Cl)c1"
test_system = "OVCAR-3 ovarian"
label_class = "inactive"

[[record]]
molecule = "CCS(=O)(=O)CCCl"
test_system = "OVCAR-3 ovarian"
label_class = "inactive"

[[record]]
molecule = "CCCOC(=O)C(O)c1ccccc1 (configuration not stated)"
test_system = "OVCAR-3 ovarian"
label_class = "inactive"

[[record]]
molecule = "COc1cc(C2NC(=O)C(C#N)=C(Nc3cccc(C)c3)S2)ccc1O (configuration not stated)"
test_system = "OVCAR-3 ovarian"
label_class = "inactive"

[[record]]
molecule = "COc1ccc(Oc2c(I)cc(CC(NC(C)=O)C(=O)O)cc2I)cc1 (configuration not stated)"
test_system = "OVCAR-3 ovarian"
label_class = "inactive"

[[record]]
molecule = "COc1ccccc1NC(=O)C1=C(C)NC(C)=C(C(=O)Nc2ccccc2OC)C1c1cccc([N+](=O)[O-])c1"
test_system = "OVCAR-3 ovarian"
label_class = "inactive"

[[record]]
molecule = "CCC/C=C(\\C)C(C)(C#N)C(=O)OCC (configuration not stated)"
test_system = "OVCAR-3 ovarian"
label_class = "inactive"

[[record]]
molecule = "CN1C(=O)CN2CCc3ccccc3C2c2cc(Cl)ccc21 (configuration not stated)"
test_system = "OVCAR-3 ovarian"
label_class = "inactive"

[[record]]
molecule = "O=[N+]([O-])c1ccc(/C=C/C=C/c2ccccc2)c(Cl)c1"
test_system = "OVCAR-3 ovarian"
label_class = "inactive"

[[record]]
molecule = "COc1ccccc1NC(=O)c1cc2cc(Br)ccc2cc1O"
test_system = "OVCAR-3 ovarian"
label_class = "active"

[[record]]
molecule = "CCN(CC)CCNc1ccc(CO)c2sc3ccccc3c(=O)c12"
test_system = "OVCAR-3 ovarian"
label_class = "inactive"

[[record]]
molecule = "FC(F)(F)c1ccc2c(c1)N(CCCN1CCN(C3CC3)CC1)c1ccccc1S2"
test_system = "OVCAR-3 ovarian"
label_class = "inactive"

[[record]]
molecule = "NC(N)=Nc1cc2ccccc2c2ccccc12"
test_system = "OVCAR-3 ovarian"
label_class = "inactive"

[[record]]
molecule = "O=C(Cc1ccc(OCc2ccccc2)cc1)NCc1ccc2c(c1)OCO2"
test_system = "OVCAR-3 ovarian"
label_class = "inactive"

[[record]]
molecule = "O=C(Nc1ccccc1)OCCc1ccccc1"
test_system = "OVCAR-3 ovarian"
label_class = "inactive"

[[record]]
molecule = "COc1cccc(/C=N/NC(=S)NC2CC3CCC2C3)c1O (configuration not stated)"
test_system = "OVCAR-3 ovarian"
label_class = "active"

[[record]]
molecule = "CCc1nc(N)nc(N)c1-c1ccc(Cl)cc1"
test_system = "OVCAR-3 ovarian"
label_class = "inactive"

[[record]]
molecule = "O=C1N(C[P+](c2ccccc2)(c2ccccc2)c2ccccc2)CCCN1C[P+](c1ccccc1)(c1ccccc1)c1ccccc1"
test_system = "OVCAR-3 ovarian"
label_class = "inactive"

[[record]]
molecule = "Cc1ncc(C#N)c(N)n1"
test_system = "OVCAR-3 ovarian"
label_class = "inactive"

[[record]]
molecule = "Cc1cc(O)ccc1O"
test_system = "OVCAR-3 ovarian"
label_class = "inactive"

[[record]]
molecule = "Cc1cc(=O)[nH]c(NN=C2CCCC2)n1"
test_system = "OVCAR-3 ovarian"
label_class = "inactive"

[[record]]
molecule = "[O-][N+](=Nc1cccc(Cl)c1)c1cccc(Cl)c1"
test_system = "OVCAR-3 ovarian"
label_class = "inactive"

